# credit: paper PMC4929166

In this section, each of the compounds is paired with its reported Human GPR55 % activation.
molecular target: human GPR55 (Homo sapiens, UniProt Q9Y2T6); construct: β-galactosidase enzyme fragment (PathHunter complementation tag); assay: β-Arrestin recruitment assay (PathHunter) at GPR55; assay type: cell-based; conditions: β-arrestin assay; percent in brackets beside EC50 >10 µM
Sequence (Q9Y2T6 whole entry, the tested form may be a part): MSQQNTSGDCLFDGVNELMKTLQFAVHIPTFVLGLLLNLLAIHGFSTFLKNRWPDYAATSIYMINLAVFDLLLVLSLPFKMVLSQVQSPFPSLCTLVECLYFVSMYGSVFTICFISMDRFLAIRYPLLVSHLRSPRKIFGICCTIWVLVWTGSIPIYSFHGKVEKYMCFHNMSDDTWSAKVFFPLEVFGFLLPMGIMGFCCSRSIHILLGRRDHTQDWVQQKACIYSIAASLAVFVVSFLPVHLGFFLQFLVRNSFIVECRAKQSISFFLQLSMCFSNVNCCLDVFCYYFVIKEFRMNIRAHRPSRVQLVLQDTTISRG
Write the value in % as a bare number.

Some compounds with known Human GPR55 % activation results, for comparison:
# compound, recorded.number
records = [
    ("CCCCCn1nc(C(=O)c2cccc3ccccc23)c2ccccc21", 6),
    ("O=C(Oc1cccc2cccnc12)c1cn(CCCCCF)c2ccccc12", 5),
    ("Cc1ccc(C(=O)c2cn(CCCC(C)F)c3ccccc23)c2ccccc12 (stereo not drawn) [Compound 32, MAM-2201-4-fluoropentyl-isomer]", "−41"),
    ("O=C(c1cccc2ccccc12)c1nn(CCCCCF)c2ccccc12", "−1"),
    ("CC1(C)C(C(=O)c2cn(CCCC(F)(F)F)c3ccccc23)C1(C)C", "−5"),
]

Next compound, please.
Query block: Indicate its recorded Human GPR55 % activation; the compound in question is O=C(NC12CC3CC(CC(C3)C1)C2)c1nn(Cc2ccc(F)cc2)c2ccccc12
Result block: −11

====

biological target: UniProt:P34972; experiment: biochemical; type: binding; design: expressed in transfected cells; host or cells: CHO cells (membrane preparation); conditions: versus 0.1 nM [3H]CP55,940; CHO cell membranes; mean ± SEM of three to five experiments; read-out: Ki ± SEM Human CB2
Sequence (P34972 whole entry): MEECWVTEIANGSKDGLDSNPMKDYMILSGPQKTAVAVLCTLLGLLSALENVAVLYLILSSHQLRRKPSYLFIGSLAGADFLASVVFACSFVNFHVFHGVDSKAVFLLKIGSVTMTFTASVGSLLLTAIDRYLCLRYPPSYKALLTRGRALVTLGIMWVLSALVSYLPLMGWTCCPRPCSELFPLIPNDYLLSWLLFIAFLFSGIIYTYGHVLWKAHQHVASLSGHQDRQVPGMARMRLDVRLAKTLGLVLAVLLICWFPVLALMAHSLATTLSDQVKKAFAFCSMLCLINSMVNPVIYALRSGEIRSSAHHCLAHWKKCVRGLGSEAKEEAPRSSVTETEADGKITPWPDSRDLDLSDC
reported.property: Ki
Reply with the number and its unit after it.

Please review the entries below; each comes with its answer.
# molecule, experimental.target, Ki
data = [
    ("O=C(Nc1cccc2ccccc12)c1cn(CCCCCCl)c2ccccc12", "UniProt:P34972", "32800 pM"),
    ("CC1(C)C(C(=O)c2cn(CCCCCF)c3ccccc23)C1(C)C", "UniProt:P34972", "608 pM"),
    ("O=C(NC12CC3CC(CC(C3)C1)C2)c1nn(Cc2ccc(F)cc2)c2ccccc12", "UniProt:P34972", "174 pM"),
]

Next item in the queue.
Query block: Supply Ki value. Item: Cc1ccc(C(=O)c2cn(CCCC(C)F)c3ccccc23)c2ccccc12 (stereo not drawn) [Compound 32, MAM-2201-4-fluoropentyl-isomer]
Result block: 808 pM

====

Human GPR18 % inhibition values, listed per item
target: human GPR18 (Homo sapiens, UniProt Q14330); construct: β-galactosidase enzyme fragment (PathHunter complementation tag); test: β-Arrestin recruitment assay (PathHunter) at GPR18; format: cell-based; details: β-arrestin assay; percent in brackets beside IC50
Please state the figure in %; there is no need to write the unit.

Worked set:
# compound, Human GPR18 % inhibition / %
rows = [
    ("CC1(C)C(C(=O)c2cn(Cc3ccc(F)cc3)c3ccccc23)C1(C)C [Compound 42, FUB-144]", 74),
    ("CCc1ccc(C(=O)c2cn(CCCCCF)c3ccccc23)c2ccccc12 [Compound 31, EAM-2201]", 4),
    ("CCCCCn1cc(C(=O)NCc2ccccc2)c2ccccc21 [Compound 12, SDB-006]", 22),
    ("O=C(Nc1cccc2cccnc12)c1nn(CCCCCF)c2ccccc12 [Compound 11, 5F-THJ]", 44),
    ("COc1cccc2c(C(=O)C3C4(C)CCC(C4)C3(C)C)c(C)n(CCN3CCOCC3)c12 (centres unmarked) [Compound 48, MN-25]", 30),
    ("O=C(NCc1ccccc1)c1cn(CCCCCF)c2ccccc12 [Compound 13, 5F-SDB-006]", "−24"),
]

Query block: Identify measured Human GPR18 % inhibition associated with CCCCCn1cc(C(=O)Nc2cccc3ccccc23)c2ccccc21 [Compound 4, NNEI]
Result block: −15

Query block: Tell me measured Human GPR18 % inhibition for O=C(Nc1cccc2ccccc12)c1cn(CCCCCCl)c2ccccc12 [Compound 6, 5Cl-NNEI] please.
Result block: −13

====

pIC50 values by entry
Target: human GPR18 (Homo sapiens, UniProt Q14330)
Construct: β-galactosidase enzyme fragment (PathHunter complementation tag)
Sequence (Q14330 1-331): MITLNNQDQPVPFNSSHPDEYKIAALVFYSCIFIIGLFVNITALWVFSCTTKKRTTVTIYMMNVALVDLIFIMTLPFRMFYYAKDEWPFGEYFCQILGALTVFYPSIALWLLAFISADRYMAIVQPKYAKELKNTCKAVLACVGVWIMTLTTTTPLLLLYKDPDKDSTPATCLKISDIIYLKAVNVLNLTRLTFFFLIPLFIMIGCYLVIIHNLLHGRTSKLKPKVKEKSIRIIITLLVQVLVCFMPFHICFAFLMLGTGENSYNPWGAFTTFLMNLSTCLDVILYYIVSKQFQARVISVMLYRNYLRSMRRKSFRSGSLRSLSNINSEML
Assay: β-Arrestin recruitment assay (PathHunter) at GPR18
Type: cell-based
pIC50: −log10 of the molar value.

# smiles.code, result
measured = [
    ("CCCCCn1cc(C(=O)Nc2ccccc2)c2ccccc21", "< 5.00"),
]

Query block: # lookup: human GPR18 (Homo sapiens, UniProt Q14330) pIC50, key = CC1(C)C(C(=O)c2cn(CCCC(F)(F)F)c3ccccc23)C1(C)C
Result block: < 5.00

Query block: State, for human GPR18 (Homo sapiens, UniProt Q14330), measured pIC50 of the compound listed here: CC1(C)C(C(=O)c2cn(CCN3CCOCC3)c3ccccc23)C1(C)C
Result block: < 5.00

Query block: State, for human GPR18 (Homo sapiens, UniProt Q14330), measured pIC50 of the compound listed here: CCCCCn1cc(C(=O)C2C(C)(C)C2(C)C)c2ccccc21
Result block: < 5.00

====

target: human GPR18 (Homo sapiens, UniProt Q14330); construct: β-galactosidase enzyme fragment (PathHunter complementation tag); assay: β-Arrestin recruitment assay (PathHunter) at GPR18; assay type: cell-based; details: β-arrestin assay; percent in brackets beside IC50
reported.property: Human GPR18 % inhibition (%)
Respond with the bare value in %.

Here's what some known entries look like.
# molecule, unit, recorded.number
rows = [
    ("CCCCCn1nc(C(=O)c2cccc3ccccc23)c2ccccc21", "%", "−5"),
    ("CCCC(F)Cn1cc(C(=O)C2C(C)(C)C2(C)C)c2ccccc21 (stereo not drawn) [Compound 39, XLR-11-2-fluoropentyl-isomer]", "%", 29),
    ("O=C(Nc1cccc2ccccc12)c1cn(CCCCCF)c2ccccc12", "%", "−17"),
    ("O=C(Oc1cccc2cccnc12)c1cn(Cc2ccc(F)cc2)c2ccccc12", "%", 8),
    ("O=C(Oc1cccc2cccnc12)c1cn(CCCCCF)c2ccccc12", "%", "−5"),
    ("CCCCCn1nc(C(=O)Nc2cccc3cccnc23)c2ccccc21", "%", 30),
    ("CC1(C)C(C(=O)c2cn(CC3CCOCC3)c3ccccc23)C1(C)C", "%", 6),
    ("CCCCCn1cc(C(=O)C23CC4CC(CC(C4)C2)C3)c2ccccc21", "%", 62),
    ("O=C(Oc1cccc2ccccc12)c1cn(CCCCCF)c2ccccc12", "%", 32),
    ("CCCCCn1cc(C(=O)Oc2cccc3cccnc23)c2ccccc21", "%", 26),
]

Query block: Report Human GPR18 % inhibition for O=C(NC12CC3CC(CC(C3)C1)C2)c1cn(CCCCCF)c2ccccc12
Result block: 30

Query block: For the molecule CC1(C)C(C(=O)c2cn(CCN3CCOCC3)c3ccccc23)C1(C)C , give its reported Human GPR18 % inhibition.
Result block: −10

====

Measured IC50, listed per entry.
target: human GPR18 (Homo sapiens, UniProt Q14330); construct: β-galactosidase enzyme fragment (PathHunter complementation tag); assay: β-Arrestin recruitment assay (PathHunter) at GPR18; assay type: cell-based

Query block: Entry O=C(Oc1cccc2cccnc12)c1cn(Cc2ccc(F)cc2)c2ccccc12 needs its IC50 filled in; supply it.
Result block: > 10 µM

Query block: Tell me IC50 reported for Cc1c(C(=O)C2C(C)(C)C2(C)C)c2ccccc2n1CCCCCF
Result block: ~10 µM

Query block: Answer with the recorded IC50 for the compound listed here: CCCCCn1cc(C(=O)C23CC4CC(CC(C4)C2)C3)c2ccccc21
Result block: ~10 µM

Query block: State its IC50 for this compound: O=C(Oc1cccc2cccnc12)c1cn(CCCCCF)c2ccccc12
Result block: > 10 µM

Query block: Using known records, supply IC50 for O=C(Oc1cccc2ccccc12)c1nn(CCCCCF)c2ccccc12
Result block: > 10 µM

Query block: Give IC50 for CCCCCn1nc(C(=O)c2cccc3ccccc23)c2ccccc21
Result block: > 10 µM

Query block: Item CCCCCn1cc(C(=O)NC23CC4CC(CC(C4)C2)C3)c2ccccc21 : provide IC50
Result block: > 10 µM
